- test target: Fyn (UniProt P06241)
- Sequence (P06241 whole entry, looked up): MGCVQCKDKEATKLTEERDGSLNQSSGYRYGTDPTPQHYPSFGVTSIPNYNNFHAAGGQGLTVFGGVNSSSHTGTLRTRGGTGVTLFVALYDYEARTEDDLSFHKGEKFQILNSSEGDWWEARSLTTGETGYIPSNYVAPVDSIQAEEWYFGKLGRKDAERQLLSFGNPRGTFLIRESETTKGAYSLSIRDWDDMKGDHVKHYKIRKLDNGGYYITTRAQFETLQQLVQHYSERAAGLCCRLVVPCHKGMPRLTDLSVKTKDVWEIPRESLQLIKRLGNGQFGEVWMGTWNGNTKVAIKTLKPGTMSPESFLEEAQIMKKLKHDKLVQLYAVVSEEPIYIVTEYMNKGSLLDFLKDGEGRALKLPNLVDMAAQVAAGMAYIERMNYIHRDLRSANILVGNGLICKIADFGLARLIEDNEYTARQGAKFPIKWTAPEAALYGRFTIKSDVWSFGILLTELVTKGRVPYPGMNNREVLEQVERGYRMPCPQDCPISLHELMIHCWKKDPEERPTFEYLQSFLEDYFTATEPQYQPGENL
- assay protocol: phosphorylation enrichment, bacterial display (enrichment ratio); higher = better substrate or ligand; peptides without Tyr show the background;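 note: 11-residue human phosphosite peptides and single-mutation variants displayed on the E. coli surface, counted by deep sequencing, each peptide's frequency after selection divided by its frequency in the unselected input library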;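 note: frequency after pTyr selection over input frequency; kinase dosed for 20-30% of maximal phosphorylation in three min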
Tag: Criterion met if measured phosphorylation enrichment is not below 0.5, Criterion not met if it is.

sequence data	test target	discrete label
FIGCIYLFLTK [GARS1_Y414_R412C_YF]	Fyn (UniProt P06241)	Criterion not met
LHQSTYQCFDV [SLC7A14_Y693_R695C_YF]	Fyn (UniProt P06241)	Criterion met
INMKEYCKKDY [NTN1_Y490_K489E]	Fyn (UniProt P06241)	Criterion not met
HELYVYKCDEN [DOCK3_Y548]	Fyn (UniProt P06241)	Criterion met
EFGRRYGFSCQ [CCDC93_Y209_R213C_YF]	Fyn (UniProt P06241)	Criterion met
MTFVFYRENLR [NLRP14_Y443_YF]	Fyn (UniProt P06241)	Criterion not met
HTVVSYAKVRA [CLOCK_Y378_E380K]	Fyn (UniProt P06241)	Criterion met
RFVTRYIFNRE [HLA-DQB1_Y62_YF]	Fyn (UniProt P06241)	Criterion met
RFFTTYDTNGR [CLCA1_Y665_YF]	Fyn (UniProt P06241)	Criterion met
SSYDIYHLSRE [KIR3DL2_Y253]	Fyn (UniProt P06241)	Criterion met
MNLLGYRQVRS [CHST4_Y359_H361Q]	Fyn (UniProt P06241)	Criterion not met
PFFASYPPSPD [GDAP2_Y491_T489A_YF]	Fyn (UniProt P06241)	Criterion met
RSFLSYFTSHV [NEFL_Y442_P440L_YF]	Fyn (UniProt P06241)	Criterion met
SRDTCYLVLAV [AMH_Y195_R194C]	Fyn (UniProt P06241)	Criterion met
CTTIHKNFMCN [TP53_Y234_Y234K_YF]	Fyn (UniProt P06241)	Criterion not met
PLFRVYGLESL [INSR_Y94_L89P]	Fyn (UniProt P06241)	Criterion met
PKSLFYLLLKL [TRPC6_Y775]	Fyn (UniProt P06241)	Criterion not met
ANQDDYISFRH [IMP4_Y226]	Fyn (UniProt P06241)	Criterion met
HHFAAYFQQGD [GPI_Y351_R347H]	Fyn (UniProt P06241)	Criterion not met
CTLLPYFSAPV [DGKE_Y269_R273P_YF]	Fyn (UniProt P06241)	Criterion met
FFRDGCMPRQF [GSS_Y270_Y270C_YF]	Fyn (UniProt P06241)	Criterion not met
RAMPVYEKAEH [TP63_Y231_K232E]	Fyn (UniProt P06241)	Criterion met
AAILGYCRGEA [XPC_Y669]	Fyn (UniProt P06241)	Criterion not met
EFENSCIFDIN [GAB1_Y83_Y83C]	Fyn (UniProt P06241)	Criterion not met
TRTDAYAVSSF	Fyn (UniProt P06241)	Criterion not met
WRVISYHVVVW [ATP13A2_Y50_G49S]	Fyn (UniProt P06241)	Criterion not met
KILGRYFETGS [PAX2_Y72_YF]	Fyn (UniProt P06241)	Criterion not met
VGSEDYGRDLT [SPTAN1_Y1792]	Fyn (UniProt P06241)	Criterion met
GLAKGYIDPET [CSNK1G2_Y195_E194G]	Fyn (UniProt P06241)	Criterion met
KDHPDYKYQPR [SOX10_Y171]	Fyn (UniProt P06241)	Criterion not met
MENFIYESMRF [CYP19A1_Y361_YF]	Fyn (UniProt P06241)	Criterion met
HNLDYYKMTTN [FGFR3_Y648_K650M]	Fyn (UniProt P06241)	Criterion not met
